# credit: patent US9067898B1

# system under test: long form of human GPR120 (Homo sapiens)
# Sequence (Q5NUL3 1-377 isoform Q5NUL3-1): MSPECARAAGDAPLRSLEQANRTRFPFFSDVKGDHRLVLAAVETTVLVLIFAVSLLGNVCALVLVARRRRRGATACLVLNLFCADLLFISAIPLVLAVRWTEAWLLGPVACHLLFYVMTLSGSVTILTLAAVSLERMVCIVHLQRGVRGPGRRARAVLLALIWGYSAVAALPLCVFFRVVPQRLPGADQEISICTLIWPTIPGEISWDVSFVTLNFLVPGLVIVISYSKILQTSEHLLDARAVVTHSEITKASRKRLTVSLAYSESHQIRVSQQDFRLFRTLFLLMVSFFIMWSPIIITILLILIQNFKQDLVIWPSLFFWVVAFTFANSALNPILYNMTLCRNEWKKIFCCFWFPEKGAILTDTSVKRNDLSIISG
# Sequence (P32121 whole entry partner): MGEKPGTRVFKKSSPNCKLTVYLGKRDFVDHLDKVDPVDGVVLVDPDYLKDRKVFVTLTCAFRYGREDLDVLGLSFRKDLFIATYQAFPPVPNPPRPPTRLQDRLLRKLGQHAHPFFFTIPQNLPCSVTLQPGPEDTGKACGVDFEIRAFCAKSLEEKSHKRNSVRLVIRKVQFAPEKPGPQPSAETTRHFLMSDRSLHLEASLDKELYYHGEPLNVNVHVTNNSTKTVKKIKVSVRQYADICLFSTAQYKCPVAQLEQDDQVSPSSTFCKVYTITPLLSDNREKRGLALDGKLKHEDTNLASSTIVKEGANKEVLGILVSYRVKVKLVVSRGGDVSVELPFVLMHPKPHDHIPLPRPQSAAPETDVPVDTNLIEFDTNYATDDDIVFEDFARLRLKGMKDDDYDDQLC
# test: Human GPR120 DiscoveRx PathHunter Beta-Arrestin assay, Procedure β-arrestin A
# protocol conditions: PathHunter CHO-K1 GPR120 β-Arrestin cell line, 3000 cells per well, read-out: hGPR120 β-arrestin A EC50
readout type: EC50 (nM)

Look over these answered cases.
Observed EC50 on long form of human GPR120 (Homo sapiens) for "O=C(O)CCc1ccc(OCc2sc(Cl)cc2-c2ccc(Cl)cc2)c(F)c1F" , please.
186

Observed EC50 on long form of human GPR120 (Homo sapiens) for "CCc1ccc(-c2nsc(C(F)(F)F)c2COc2c(F)c(F)c(CCC(=O)O)c(F)c2F)cc1" , please.
257

Observed EC50 on long form of human GPR120 (Homo sapiens) for "CCc1ccc(-c2snc(Cl)c2COc2c(F)cc(CCC(=O)O)c(F)c2F)cc1" , please.
244

Observed EC50 on long form of human GPR120 (Homo sapiens) for "O=C(O)CCc1cc(F)c(OCc2csnc2-c2ccc(Br)cc2)c(F)c1" , please.
486

Observed EC50 on long form of human GPR120 (Homo sapiens) for "CCc1ccc(-c2nsc(C(F)(F)F)c2COc2ccc(CCC(=O)O)c(F)c2F)cc1" , please.
134

Observed EC50 on long form of human GPR120 (Homo sapiens) for "O=C(O)CCc1cc(F)c(OCc2c(-c3ccc(Cl)c(F)c3)nsc2C(F)(F)F)c(F)c1" , please.
86

Observed EC50 on long form of human GPR120 (Homo sapiens) for "Cc1c(CCC(=O)O)ccc(OCc2c(-c3ccc(Cl)c(F)c3)nsc2C(F)(F)F)c1C" , please.
172

Observed EC50 on long form of human GPR120 (Homo sapiens) for "Cc1c(CCC(=O)O)ccc(OCc2csnc2-c2ccc(Br)cc2)c1C" , please.
813

(a) Cc1ccc(-c2nsc(C(F)(F)F)c2COc2c(F)cc(CCC(=O)O)cc2F)c(F)c1
(b) Cc1c(CCC(=O)O)cc(F)c(OCc2csnc2-c2ccc(Cl)cc2)c1F
(c) O=C(O)CCc1cc(F)c(OCc2c(-c3ccc4c(c3)OCO4)csc2C(F)(F)F)c(F)c1
(d) CCc1ccc(-c2ccsc2COc2ccc(CCCO)c(F)c2F)cc1
(e) Cc1c(CCC(=O)O)ccc(OCc2c(Cl)nsc2-c2ccc(Cl)cc2)c1C
Sort by EC50, descending. Put the labels in the order asked and list them.
b, c, d, a, e
(b: 961 nM, c: 456 nM, d: 261 nM, a: 168 nM, e: 81 nM)

(A) CCc1ccc(-c2cc(Cl)sc2COc2c(F)cc(CCCO)cc2F)cc1
(B) Cc1cc(OCc2c(-c3ncc(Cl)cc3F)nsc2C(F)(F)F)c(F)cc1CCC(=O)O
(C) OCCCc1ccc(OCc2c(-c3ccc(Cl)cc3)nsc2C(F)(F)F)c(F)c1F
Sort by EC50, descending. Put the labels in the order asked and list them.
B, A, C
(B: 540 nM, A: 203 nM, C: 122 nM)

(P) Cc1c(CCC(=O)O)ccc(OCc2c(-c3ncc(Cl)cc3F)nsc2C(F)(F)F)c1C
(Q) CCc1ccc(-c2sccc2COc2ccc(CCC(=O)O)c(F)c2F)cc1
Compare the recorded EC50 of P and Q ; state which is larger. Provide the label of your selected option as the answer.
P

(A) Cc1c(CCC(=O)O)ccc(OCc2c(-c3c(F)cc(Cl)cc3F)nsc2C(F)(F)F)c1C
(B) Cc1ccccc1-c1snc(Cl)c1COc1c(F)cc(CCC(=O)O)cc1F
(C) O=C(O)CCc1cc(F)c(OCc2c(-c3ccc(Cl)cc3)nsc2C(F)(F)F)c(F)c1
Sort by EC50, descending. Put the labels in the order asked and list them.
A, B, C

(P) CCc1ccc(-c2cc(F)sc2COc2ccc(CCC(=O)O)c(F)c2F)cc1
(Q) O=C(O)CCc1cc(F)c(OCc2c(-c3ccc(Cl)cc3)csc2C(F)(F)F)c(F)c1
Compare the recorded EC50 of P and Q ; state which is larger. Provide the label of your selected option as the answer.
Q

(I) COc1ccc(-c2csc(C(F)(F)F)c2COc2c(F)cc(CCCO)cc2F)cc1
(II) OCCCc1cc(F)c(OCc2c(-c3ccc4c(c3)OCO4)csc2C(F)(F)F)c(F)c1
Which value of EC50 is smaller, the one for I or the one for II ? Provide the label of your selected option as the answer.
II
(II: 57 nM, I: 123 nM)

(P) Cc1snc(-c2ccc(Cl)cc2)c1COc1ccc(CCC(=O)O)c(F)c1F
(Q) COc1ccc(-c2nsc(C(F)(F)F)c2COc2c(F)cc(CCC(=O)O)cc2F)cn1
Which value of EC50 is smaller, the one for P or the one for Q ? Provide the label of your selected option as the answer.
P
(P: 128 nM, Q: 185 nM)

(1) OCCCc1cc(F)c(OCc2c(-c3ccc4c(c3)OCO4)nsc2C(F)(F)F)c(F)c1
(2) O=C(O)CCc1cc(F)c(OCc2csnc2-c2ccc(Cl)cc2)c(F)c1
Compare the recorded EC50 of 1 and 2 ; state which is larger. Provide the label of your selected option as the answer.
2
(2: 490 nM, 1: 38 nM)
